experiment: polyglutamine aggregate formation blockers (AID 1604); settings: polyglutamine-induced protein aggregation inhibition assay; stronger effect = higher value; tested at 2.5 µM
Below, each entry is listed alongside its reported inhibition of aggregation.
Could you give me the number in %? Just the number is fine.

INSERT INTO results (compound, unit_text, measured_result) VALUES
  ('C=CCc1ccc(O)c(OC)c1', '%', 81.4),
  ('COc1ccc2[nH]cc(CCNC(C)=O)c2c1', '%', 46.1),
  ('CCCC(C(=O)OCCN(CC)CC)(c1ccccc1)c1ccccc1', '%', 77),
  ('CN(C)CCC=C1c2ccccc2C=Cc2ccccc21', '%', 84.1),
  ('CCOC(=O)c1ccc(N)cc1', '%', 53);

What value of inhibition of aggregation has been recorded for this entry: Cc1ccc(C(=O)c2ccc(CC(=O)O)n2C)cc1
23.8

Same read-out for CC(=O)OCC1=C(C(=O)O)N2C(=O)[C@@H](NC(=O)CSc3ccncc3)[C@H]2SC1 ?
71.9

Another: CC[N+](CC)(CC)CCOc1cccc(OCC[N+](CC)(CC)CC)c1OCC[N+](CC)(CC)CC
83.6

Then C[N+]1(CCCCC[N+]2(C)CCCC2)CCCC1 ?
49

How about Nc1c2c(nc3ccccc13)CCCC2O (configuration not stated) ?
59.1

Next: CC(=O)Nc1ccc(S(=O)(=O)Nc2ccc([N+](=O)[O-])cc2)cc1
15.7

// query: Clc1ccccc1C(c1ccccc1)(c1ccccc1)n1ccnc1
41.7
